# SYSTEM: furin, P09958;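 further: purified furin at 1:10 enzyme:substrate in 50 mM HEPES pH 7.5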
# Sequence (P09958 whole entry): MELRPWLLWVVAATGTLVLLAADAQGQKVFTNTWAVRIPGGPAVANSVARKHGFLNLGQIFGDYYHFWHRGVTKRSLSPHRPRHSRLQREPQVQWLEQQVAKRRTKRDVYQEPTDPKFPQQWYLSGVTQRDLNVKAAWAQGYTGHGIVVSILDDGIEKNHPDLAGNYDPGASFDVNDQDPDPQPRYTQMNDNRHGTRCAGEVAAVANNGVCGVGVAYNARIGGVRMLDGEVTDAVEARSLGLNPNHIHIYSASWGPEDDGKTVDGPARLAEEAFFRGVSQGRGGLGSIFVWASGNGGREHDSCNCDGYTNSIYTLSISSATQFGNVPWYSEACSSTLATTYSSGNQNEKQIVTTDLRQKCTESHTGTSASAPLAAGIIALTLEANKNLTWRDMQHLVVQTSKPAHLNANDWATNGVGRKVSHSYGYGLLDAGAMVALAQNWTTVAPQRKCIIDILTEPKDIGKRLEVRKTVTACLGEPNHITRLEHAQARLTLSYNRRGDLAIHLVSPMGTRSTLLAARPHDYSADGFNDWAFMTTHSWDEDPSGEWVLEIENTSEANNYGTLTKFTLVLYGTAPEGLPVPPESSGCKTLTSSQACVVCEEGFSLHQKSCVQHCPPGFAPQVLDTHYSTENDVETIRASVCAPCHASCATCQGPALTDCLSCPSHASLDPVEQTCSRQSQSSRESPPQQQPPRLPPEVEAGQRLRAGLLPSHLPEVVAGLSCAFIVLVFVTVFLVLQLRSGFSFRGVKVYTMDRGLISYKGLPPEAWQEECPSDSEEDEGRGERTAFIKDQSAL
# TEST METHOD NOTES: furin cleavage Z-score vs untreated control; higher = more cleavage, active = 3.5 or more, inactive = 1 or less, 8 variable residues between constant flanks
# CONDITION DESCRIPTION: 7.5 min
The other results are listed elsewhere or left out. The true hit rate is not given.
Outcomes: active, inactive

CHAIN: CAFHYVTGMTAGNASASA [HC1210]
ANSWER LABEL: inactive
//
CHAIN: CARPGRRVCAAGNASASA [FS-3259]
ANSWER LABEL: inactive
//
CHAIN: CACVTQTVDFAGNASASA [HC889]
ANSWER LABEL: inactive
//
CHAIN: CALDCEIYGAAGNASASA [HC1592]
ANSWER LABEL: inactive
//
CHAIN: CAVVTCSMSYAGNASASA [HC2038]
ANSWER LABEL: inactive
//
CHAIN: CAKRWRRGRAAGNASASA [FS-1596]
ANSWER LABEL: active
//
CHAIN: CAMKSRLRRTAGNASASA [FS-1035]
ANSWER LABEL: active
//
CHAIN: CAMEDCSQHLAGNASASA [HC1711]
ANSWER LABEL: inactive
//
CHAIN: CAIAYFSMVGAGNASASA [HC340]
ANSWER LABEL: inactive
//
CHAIN: CAAAGLQDCTAGNASASA [HC1523]
ANSWER LABEL: inactive
